Target: CD137 (UniProt Q07011 24-255, limits assumed)
Sequence (Q07011 24-255 limits assumed): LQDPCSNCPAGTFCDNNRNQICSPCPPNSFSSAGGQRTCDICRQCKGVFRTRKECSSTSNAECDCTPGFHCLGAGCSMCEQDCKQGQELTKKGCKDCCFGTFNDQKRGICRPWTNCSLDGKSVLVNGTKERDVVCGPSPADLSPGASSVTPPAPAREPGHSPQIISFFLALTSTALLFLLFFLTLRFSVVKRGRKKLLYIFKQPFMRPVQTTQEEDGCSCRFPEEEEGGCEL
Assay: cell-based or functional assay
*1 amine or outer side, *2 acyl side, *3 side chain or, on linkers, in order; H or OH if unused. Bridges are numbered along the chain shown (N, C = ends). Roman numbers before positions name the chains, in order. Where no end group is shown, it is not given here. [ ]: non-standard residue; d: D form. The star is where a group is joined. TATA = O=C(CC[*:1])N1CN(C(=O)CC[*:2])CN(C(=O)CC[*:3])C1; 1Nal = N[C@@H](Cc1cccc2ccccc12)C(=O)O; Hyp = O=C(O)[C@@H]1C[C@@H](O)CN1; hArg = N=C(N)NCCCC[C@H](N)C(=O)O; tBuAla = CC(C)(C)C[C@H](N)C(=O)O; NMeA = CN[C@@H](C)C(=O)O; Nle = CCCC[C@H](N)C(=O)O; Pent4ynoyl = C#CCCC(=O)*; βAla = NCCC(=O)O; Mpa = O=C(O)CCS
Field 'label' (enum: true (1) / false (0)). Set to true (1) when Fold improvement in EC50 over BCY10000 on same plate is strictly under 0.7 fold; else false (0).

// below: answered binders
BCY12582 (linker I:1-I:5-I:15, II:1-II:8-II:15 via TATA; not fully specified (bridges); also: chain 1 N-terminus joined to chain 2 dLys(PYA) by Peg5 linker (heterotandem complex)) peptide 1: CP[1Nal][dA]CM[hArg]DWSTP[Hyp]WC peptide 2: Ac-C[tBuAla]PE[dK](Pent4ynoyl)PYCFADPY[Nle]CA
false (0)
BCY12709 (linker I:1-I:5-I:15, II:1-II:8-II:15 via TATA; not fully specified (bridges); also: chain 1 N-terminus joined to chain 2 dLys(PYA) by Peg5 linker (heterotandem complex)) peptide 1: CP[1Nal][dD]CM[hArg]DWSTP[Hyp]WC peptide 2: Ac-C[tBuAla]PE[dK](Pent4ynoyl)PYCFAD[NMeA]Y[Nle]C
true (1)
BCY12573 (linker I:1-I:5-I:15 via TATA; numbers in words are those of the source; also: two bicycles joined by Peg5 linker, linker at chain B 7 at chain B 14 to a chain's N-terminus via TATA) peptide 1: CP[1Nal][dD]CM[hArg]DWSTP[Hyp]WC peptide 2: [Mpa][tBuAla]PE[dK](Pent4ynoyl)PYCFADPY[Nle]C
false (0)
BCY12581 (linker I:1-I:5-I:15, II:1-II:8-II:15 via TATA; not fully specified (bridges); also: chain 1 N-terminus joined to chain 2 dLys(PYA) by Peg5 linker (heterotandem complex)) peptide 1: CP[1Nal][dE]CM[hArg]DWSTP[Hyp]WC peptide 2: Ac-C[tBuAla]PE[dK](Pent4ynoyl)PYCFADPY[Nle]CA
false (0)
BCY11776 (not fully specified; [Ac]C[tBuAla]PE[dK]PYCFADPY[Nle]C[Dap(PYA)]; dK carries palmitic acid (Example 5); Cys residues bonded to TATA scaffold; CP[1Nal][dD]CM[HArg]DWSTP[HyP]WC; Cys residues bonded to TATA scaffold) peptide 1: CPXDCMXDWSTPXWC peptide 2: CXPEKPYCFADPYXCX
true (1)

Field: below-cutoff. Rule: recorded Fold improvement in EC50 over BCY10000 on same plate strictly less than 0.7 fold. Subject: BCY11860 (linker I:2-I:6-I:16, II:1-II:8-II:15 via TATA; linker II:N-II:5 via Peg5; also: two bicycles joined by Peg5 linker, further acylated with a reagent shown only in a drawing) peptide 1: Pent4ynoyl-[βAla]CP[1Nal][dK]CM[hArg]DWSTP[Hyp]WC peptide 2: Ac-C[tBuAla]PE[dK]PYCFADPY[Nle]CA true (1)

What do you have for BCY12577 (Ac-C[tBuAla]PE[D-Lys(PYA)]PYCFADPY[Nle]CA; Cys residues bonded to TATA scaffold; [Ac]CP[1Nal][dK]CM[HArg]DWSTP[HyP]W[Cysteamine]; reactive groups bonded to TATA scaffold) peptide 1: CPXKCMXDWSTPXX peptide 2: CXPEXPYCFADPYXCA ? true (1)
